Hey, just so you know, these numbers are from patent US20220411498A1.

testTarget: T1, huCD39 on the cell surface (293T/17-huCD39 cells) (human, UniProt P49961 1-510)
T1 construct: whole, on cells; also called natural CD39 protein on the cell surface; huCD39 antigen on the cell surface
T1 sequence (looked up): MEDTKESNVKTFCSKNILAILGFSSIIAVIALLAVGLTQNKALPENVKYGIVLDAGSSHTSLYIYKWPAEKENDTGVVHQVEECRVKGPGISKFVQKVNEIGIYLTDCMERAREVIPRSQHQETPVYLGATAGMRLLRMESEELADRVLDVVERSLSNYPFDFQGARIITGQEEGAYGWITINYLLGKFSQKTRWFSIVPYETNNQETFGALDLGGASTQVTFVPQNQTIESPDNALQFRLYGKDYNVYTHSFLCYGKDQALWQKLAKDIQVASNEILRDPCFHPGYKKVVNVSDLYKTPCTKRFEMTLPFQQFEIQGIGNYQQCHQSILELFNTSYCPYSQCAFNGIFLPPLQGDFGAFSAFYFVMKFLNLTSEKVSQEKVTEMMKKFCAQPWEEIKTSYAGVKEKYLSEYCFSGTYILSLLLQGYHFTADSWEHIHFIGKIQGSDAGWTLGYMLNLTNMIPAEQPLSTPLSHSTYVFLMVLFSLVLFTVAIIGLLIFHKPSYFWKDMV
protocol: flow cytometry on 293T/17-huCD39 cells
# key: entry, value: Top
// no unit, no text: just the number

See these solved cases before continuing.
[
  {
    "binder": "219 hIgG2 (antibody, V domains shown, Chimeric antibody: mouse Fv fused to the human IgG2 constant region; also called chimeric antibody 219) VH: EVQLVESGGGLVKPGGSLKLSCAASGFTFSDYGMHWVRQAPEKGLEWVAYISSGSSIRYYADTVKGRFTISRDNAKNTLFLQMTSLRSEDTAIYYCARDLYYDHVLDYWGQGTTLTVSS VL: DIQMTQSPSSLSASLGERVSLTCRASQEVSGYLNWLQQKPDGTIKRLIYAASTLDSGVPKRFSGSRSGSDYSLTISSLESEDFADYYCLQYASYPRTFGGGTKVEIKR",
    "Top": 156
  },
  {
    "binder": "216 hIgG2 (antibody, V domains shown, Chimeric antibody: mouse Fv fused to the human IgG2 constant region; also called chimeric antibody 216) VH: EVQLVESGGGLVKPGGSLKLPCAASGFTFSDYGMHWVRQAPEKGLEWVAYISSGSSIIYYADTVKGRFTISRDNAKNTLFLQMTSLRSEDTAMYYCARDLYYDHVLDYWGQGTTLTVAS VL: DIQMTQSPSSLSASLGERVSLTCRASQEISGYLIWLQQKPDGTIKRLIYAASTLDSGVPKRFSGNRSGSDYSLTISSLESEDFADYYCLQYASYPRTFGGGTKLEIKR",
    "Top": 151
  },
  {
    "binder": "201 hIgG2 (antibody, V domains shown, Chimeric antibody: mouse Fv fused to the human IgG2 constant region, expressed in 293F cells; also called chimeric antibody 201) VH: EVQLVESGGGLVKPGGSLKLSCAASGFTFSDYGMHWVRQAPEKGLEWVAYISSGSSIMYYADTVKGRFTISRDNAKNTLFLQMASLRSEDTAMYYCARDLYYDHVLDYWGQGTTLTVSS VL: DIQMTQSPSSLSASLGERVSLTCRASQEIRGYLIWLQQKPGGTIKRLIYAASTLDSGVPKRFSGSRSGSDYSLTISSLESEDFADYYCLQYTSYPRTFGGGTKLEIKR",
    "Top": 189
  }
]

For the next question, use this binder.
Determine its reported Top: 217 hIgG2 (antibody, V domains shown, Chimeric antibody: mouse Fv fused to the human IgG2 constant region) VH: EVQLVESGGGLVKPGGSLKLSCAASGFTFSDYGMHWVRQAPEKGLEWVAYISSGSSVIYYVDTVKGRFTISRDNAKNTLFLQMTSLRSEDTAMYYCARDLYYDHVLDSWGQGTTLTVSS VL: DIQMTQSPSSLSASLGERVSLTCRASQEIGGYLSWLQQKPDGTIKRLIYAASTLDSGVPKRFSGSRSGSDYSLTISSLESEDFADYYCLQYASYPRTFGGGTKLEIKR
116
